Molecular target: Muscarinic acetylcholine receptor M1 (Homo sapiens)
Sequence (P11229 whole entry): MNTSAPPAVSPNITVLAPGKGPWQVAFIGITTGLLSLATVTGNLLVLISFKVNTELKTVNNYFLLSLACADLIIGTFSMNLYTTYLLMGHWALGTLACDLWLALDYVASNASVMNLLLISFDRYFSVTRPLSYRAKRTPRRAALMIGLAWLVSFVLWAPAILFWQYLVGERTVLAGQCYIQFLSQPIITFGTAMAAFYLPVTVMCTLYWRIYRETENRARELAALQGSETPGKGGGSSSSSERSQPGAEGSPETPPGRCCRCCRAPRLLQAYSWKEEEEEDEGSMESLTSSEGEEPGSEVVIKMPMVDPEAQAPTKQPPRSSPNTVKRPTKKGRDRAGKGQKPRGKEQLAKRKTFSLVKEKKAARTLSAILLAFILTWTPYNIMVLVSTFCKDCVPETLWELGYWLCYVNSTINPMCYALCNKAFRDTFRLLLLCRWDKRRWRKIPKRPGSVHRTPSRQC
Assay: Agonist activity at human muscarinic M1 receptor
Type: functional
Conditions: read-out: EC50
pEC50: −log10 of the molar value.

Compound	Measurement Target	Modifier Sign	pEC50
C=CCOC(=O)N1[C@@H]2CC[C@H]1C[C@H](NCCNC(=O)c1ccccc1)C2	Muscarinic acetylcholine receptor M1 (Homo sapiens)	=	5.70
COC(=O)C12CCC(NCCNC(=O)c3ccccc3)(CC1)CC2	Muscarinic acetylcholine receptor M1 (Homo sapiens)	=	5.21
CCOC(=O)N1CCC(NCCNC(=O)c2ccccc2C)CC1	Muscarinic acetylcholine receptor M1 (Homo sapiens)	=	5.80
CCOC(=O)N1[C@@H]2CC[C@H]1C[C@H](NCCNC(=O)N1CCCC1)C2	Muscarinic acetylcholine receptor M1 (Homo sapiens)	<	5.00
CCOC(=O)N1C[C@H]2CC[C@@H](C1)[C@H]2NCCNC(=O)c1cccc(Cl)c1	Muscarinic acetylcholine receptor M1 (Homo sapiens)	=	7.33
CCOC(=O)N1[C@@H]2CC[C@H]1C[C@H](NCCNC(=O)c1ccncc1)C2	Muscarinic acetylcholine receptor M1 (Homo sapiens)	<	5.00
CC(C)C(=O)N1[C@@H]2CC[C@H]1C[C@H](NCCNC(=O)c1ccccc1)C2	Muscarinic acetylcholine receptor M1 (Homo sapiens)	=	5.27
CCOC(=O)N1C2CCC1CC(N1CCC[C@@H](NC(=O)c3ccccc3C)C1)C2 (mixture of isomers)	Muscarinic acetylcholine receptor M1 (Homo sapiens)	=	7.23
CCOC(=O)N1[C@@H]2CC[C@H]1C[C@H](NCCNC(=O)c1ccccc1Cl)C2	Muscarinic acetylcholine receptor M1 (Homo sapiens)	=	5.64
CCOC(=O)N1[C@@H]2CC[C@H]1C[C@H](NCCNC(=O)N1CCCCC1)C2	Muscarinic acetylcholine receptor M1 (Homo sapiens)	=	6.24
CCOC(=O)N1[C@@H]2CC[C@H]1C[C@H](NCCNC(=O)N1CCOCC1)C2	Muscarinic acetylcholine receptor M1 (Homo sapiens)	=	5.70

* * *

biological target: Muscarinic acetylcholine receptor M1 (Homo sapiens); assay: Agonist activity at human muscarinic M1 receptor by calcium mobilization assay; format: functional
pEC50: −log10 of the molar value.
Consider the following compounds and their measured pEC50 readings.
Readout Kind: pEC50

Compound	Measurement Target	Readout Kind	Recorded Measurement
CCOC(=O)N1C[C@H]2CC[C@@H](C1)[C@H]2NCCNC(=O)c1cccc(Cl)c1	Muscarinic acetylcholine receptor M1 (Homo sapiens)	pEC50	7.02
CCOC(=O)N1CCC(NCCNC(=O)c2ccccc2C)CC1	Muscarinic acetylcholine receptor M1 (Homo sapiens)	pEC50	5.59
CCOC(=O)N1C[C@H]2CC[C@@H](C1)[C@H]2NCCNC(=O)c1ccccc1	Muscarinic acetylcholine receptor M1 (Homo sapiens)	pEC50	7.74
CCOC(=O)N1C2CCC1CC(N1CCC[C@@H](NC(=O)c3ccccc3)C1)C2 (mixture of isomers)	Muscarinic acetylcholine receptor M1 (Homo sapiens)	pEC50	6.46
CCCCC1CCN(CCCN2C(=O)COc3cc(F)ccc32)CC1	Muscarinic acetylcholine receptor M1 (Homo sapiens)	pEC50	7.39
CCOC(=O)N1C2CCC1CC(N1CCC[C@@H](NC(=O)c3ccccc3C)C1)C2 (mixture of isomers)	Muscarinic acetylcholine receptor M1 (Homo sapiens)	pEC50	7.77
